Consider the following molecules and their measured IC50 readings.
- Tested on: RAW264.7
- testDetails: Anti-inflammatory activity in mouse RAW264.7 cells assessed as inhibition of LPS-induced NO production incubated pretreated with compound for 1 hr followed by LPS-induction and measured after 24 hrs by Griess reagent based assay
- Type: functional, cell-based

>  <querySmiles>
C=CCCOc1ccc(/C=C/c2cc(OC)cc(OC)c2-c2cnnn2C(=O)NCCC)cc1

>  <unitLabel>
µM

>  <IC50>
3.15

$$$$
>  <querySmiles>
C=C(C)COc1ccc(/C=C/c2cc(OC)cc(OC)c2-c2cnnn2C(=O)NCCC)cc1

>  <unitLabel>
µM

>  <IC50>
6.2

$$$$
>  <querySmiles>
C=CCOc1ccc(/C=C/c2cc(OC)cc(OC)c2-c2cnnn2C(=O)NCCC)cc1

>  <unitLabel>
µM

>  <IC50>
2.6

$$$$
>  <querySmiles>
C=CCCCOc1ccc(/C=C/c2cc(OC)cc(OC)c2-c2cnnn2C(=O)NCCCC)cc1

>  <unitLabel>
µM

>  <IC50>
8.66

$$$$
>  <querySmiles>
C=CCCCOc1ccc(/C=C/c2cc(OC)cc(OC)c2-c2cnnn2C(=O)NCCCl)cc1

>  <unitLabel>
µM

>  <IC50>
2

$$$$
>  <querySmiles>
C=CCCCOc1ccc(/C=C/c2cc(OC)cc(OC)c2-c2cnnn2C(=O)NCCC)cc1

>  <unitLabel>
µM

>  <IC50>
6.2

$$$$
>  <querySmiles>
C=CCCOc1ccc(/C=C/c2cc(OC)cc(OC)c2-c2cnnn2C(=O)NCC)cc1

>  <unitLabel>
µM

>  <IC50>
13.4

$$$$
>  <querySmiles>
C=CCOc1ccc(/C=C/c2cc(OC)cc(OC)c2-c2cnnn2C(=O)NCCCl)cc1

>  <unitLabel>
µM

>  <IC50>
0.6

$$$$
>  <querySmiles>
C=CCOc1ccc(/C=C/c2cc(OC)cc(OC)c2-c2cnnn2C(=O)NC(C)C)cc1

>  <unitLabel>
µM

>  <IC50>
8

$$$$
>  <querySmiles>
C=CCCOc1ccc(/C=C/c2cc(OC)cc(OC)c2-c2cnnn2C(=O)NCCCC)cc1

>  <unitLabel>
µM

>  <IC50>
10.4

$$$$
>  <querySmiles>
C=C(C)COc1ccc(/C=C/c2cc(OC)cc(OC)c2-c2cnnn2C(=O)NCCCC)cc1

>  <unitLabel>
µM

>  <IC50>
12.8

$$$$
>  <querySmiles>
C=C(C)COc1ccc(/C=C/c2cc(OC)cc(OC)c2-c2cnnn2C(=O)NCC)cc1

>  <unitLabel>
µM

>  <IC50>
15.2

$$$$
>  <querySmiles>
C=CCOc1ccc(/C=C/c2cc(OC)cc(OC)c2-c2cnnn2C(=O)NCC)cc1

>  <unitLabel>
µM

>  <IC50>
8.16

$$$$
>  <querySmiles>
C=CCCCOc1ccc(/C=C/c2cc(OC)cc(OC)c2-c2cnnn2C(=O)NC(C)C)cc1

>  <unitLabel>
µM

>  <IC50>
9.83

$$$$
>  <querySmiles>
C=CCOc1ccc(/C=C/c2cc(OC)cc(OC)c2-c2cnnn2C(=O)NCCc2ccccc2)cc1

>  <unitLabel>
µM

>  <IC50>
14

$$$$
>  <querySmiles>
C=CCCCOc1ccc(/C=C/c2cc(OC)cc(OC)c2-c2cnn[nH]2)cc1

>  <unitLabel>
µM

>  <IC50>
6.18

$$$$
>  <querySmiles>
C=CCCOc1ccc(/C=C/c2cc(OC)cc(OC)c2-c2cnnn2C(=O)NC(C)C)cc1

>  <unitLabel>
µM

>  <IC50>
7.91

$$$$
>  <querySmiles>
C=CCCCOc1ccc(/C=C/c2cc(OC)cc(OC)c2-c2cnnn2C(=O)NCCc2ccccc2)cc1

>  <unitLabel>
µM

>  <IC50>
6.5

$$$$
>  <querySmiles>
C=C(C)COc1ccc(/C=C/c2cc(OC)cc(OC)c2-c2cnnn2C(=O)NCCc2ccccc2)cc1

>  <unitLabel>
µM

>  <IC50>
14.9

$$$$

###

Consider the following compounds and their measured inhibition at 10 µM readings.
- Tested on: RAW264.7
- testDetails: Anti-inflammatory activity in mouse RAW264.7 cells assessed as inhibition of LPS-induced NO production at 10 uM incubated pretreated with compound for 1 hr followed by LPS-induction and measured after 24 hrs by Griess reagent based assay relative to control
- Format: functional
- particulars: time 25 hrs

>  <querySmiles>
C=C(C)COc1ccc(/C=C/c2cc(OC)cc(OC)c2-c2cnnn2C(=O)NCCCC)cc1

>  <inhibition at 10 µM [%]>
54.6

$$$$
>  <querySmiles>
C=CCCOc1ccc(/C=C/c2cc(OC)cc(OC)c2-c2cnnn2C(=O)NCCCl)cc1

>  <inhibition at 10 µM [%]>
96.9

$$$$
>  <querySmiles>
C=CCCOc1ccc(/C=C/c2cc(OC)cc(OC)c2-c2cnnn2C(=O)NCCCC)cc1

>  <inhibition at 10 µM [%]>
50.6

$$$$
>  <querySmiles>
C=CCOc1ccc(/C=C/c2cc(OC)cc(OC)c2-c2cnnn2C(=O)NCCc2ccccc2)cc1

>  <inhibition at 10 µM [%]>
45.3

$$$$
